- ASSAY SYSTEM: DYRK2 (human) (UniProt Q92630)
- Sequence (Q92630 whole entry, looked up): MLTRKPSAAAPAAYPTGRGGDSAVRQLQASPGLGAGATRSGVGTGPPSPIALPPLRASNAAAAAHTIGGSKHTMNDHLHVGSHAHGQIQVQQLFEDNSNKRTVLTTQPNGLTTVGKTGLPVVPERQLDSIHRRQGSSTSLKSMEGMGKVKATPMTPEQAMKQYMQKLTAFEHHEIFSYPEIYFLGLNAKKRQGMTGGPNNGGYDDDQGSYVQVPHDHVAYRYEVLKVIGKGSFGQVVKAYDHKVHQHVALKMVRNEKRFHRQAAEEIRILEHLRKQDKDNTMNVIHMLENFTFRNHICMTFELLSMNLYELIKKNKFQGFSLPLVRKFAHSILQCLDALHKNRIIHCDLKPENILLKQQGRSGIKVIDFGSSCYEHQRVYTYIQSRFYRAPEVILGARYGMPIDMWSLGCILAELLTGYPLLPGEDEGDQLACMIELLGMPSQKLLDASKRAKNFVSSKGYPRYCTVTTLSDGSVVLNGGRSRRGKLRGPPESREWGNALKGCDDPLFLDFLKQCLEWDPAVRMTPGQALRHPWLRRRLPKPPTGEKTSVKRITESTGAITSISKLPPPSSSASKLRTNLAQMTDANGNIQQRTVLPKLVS
- MEASUREMENT PROTOCOL: radiometric filter-binding kinase assay
- MEASUREMENT CONDITIONS: compound 1.0 µM

>  <COMPOUND>
Cn1nc(Nc2ccc(F)cc2)c2c(N)ncnc21

>  <residual activity, %>
86

$$$$
>  <COMPOUND>
Cc1ccc(Sc2cnc(Nc3cccc(Br)n3)s2)cc1C(=O)N1CCN(C(=O)CN)CC1

>  <residual activity, %>
87

$$$$
>  <COMPOUND>
Nc1cccc2c1CN(C1CCC(=O)NC1=O)C2=O (centres undefined)

>  <residual activity, %>
101

$$$$
>  <COMPOUND>
O=C(O)c1cc(N=Nc2ccc(S(=O)(=O)Nc3ccccn3)cc2)ccc1O

>  <residual activity, %>
99

$$$$

* * *

- ASSAY SYSTEM: PKN2 (human) (UniProt Q16513)
- Sequence (Q16513 whole entry, looked up): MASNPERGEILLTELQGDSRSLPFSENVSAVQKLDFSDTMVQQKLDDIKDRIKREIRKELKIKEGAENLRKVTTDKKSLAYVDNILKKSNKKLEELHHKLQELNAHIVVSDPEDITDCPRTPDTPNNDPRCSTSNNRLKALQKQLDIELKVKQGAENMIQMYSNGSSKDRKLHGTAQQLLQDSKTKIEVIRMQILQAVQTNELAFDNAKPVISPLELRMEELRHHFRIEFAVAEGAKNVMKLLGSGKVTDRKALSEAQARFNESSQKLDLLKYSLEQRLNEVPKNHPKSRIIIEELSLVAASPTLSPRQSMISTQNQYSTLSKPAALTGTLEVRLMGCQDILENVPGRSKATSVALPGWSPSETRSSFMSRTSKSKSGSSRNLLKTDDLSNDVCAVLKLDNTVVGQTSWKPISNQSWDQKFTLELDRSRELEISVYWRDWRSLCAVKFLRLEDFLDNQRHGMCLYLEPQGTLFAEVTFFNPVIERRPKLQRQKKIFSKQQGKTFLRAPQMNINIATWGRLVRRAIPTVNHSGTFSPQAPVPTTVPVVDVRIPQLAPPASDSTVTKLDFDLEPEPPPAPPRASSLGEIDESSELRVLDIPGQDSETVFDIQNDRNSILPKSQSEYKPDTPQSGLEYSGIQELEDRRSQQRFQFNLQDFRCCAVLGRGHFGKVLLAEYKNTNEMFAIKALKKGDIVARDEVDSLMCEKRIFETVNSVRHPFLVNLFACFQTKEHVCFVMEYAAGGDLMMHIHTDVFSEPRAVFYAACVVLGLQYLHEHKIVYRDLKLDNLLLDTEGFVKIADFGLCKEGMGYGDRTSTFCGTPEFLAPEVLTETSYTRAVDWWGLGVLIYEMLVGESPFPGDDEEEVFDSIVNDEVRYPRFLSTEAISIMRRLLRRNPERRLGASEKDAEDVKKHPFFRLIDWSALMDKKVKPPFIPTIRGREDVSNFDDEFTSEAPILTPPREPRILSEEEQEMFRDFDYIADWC
- MEASUREMENT PROTOCOL: radiometric filter-binding kinase assay
- MEASUREMENT CONDITIONS: compound 10.0 µM
Form field: residual activity (one value per entry).

>  <MOLECULE>
CC1=C(CO)C(=O)O[C@@H]([C@@H](C)[C@H]2CC[C@H]3[C@@H]4C[C@H]5O[C@]56[C@@H](O)C=CC(=O)[C@]6(C)C4CC[C@]23C)C1 (stereo not given in full)

>  <residual activity / %>
104

$$$$
>  <MOLECULE>
Oc1ccc(/C=C/c2cc(O)cc(O)c2)cc1

>  <residual activity / %>
70

$$$$
>  <MOLECULE>
O=C1NC(=S)N[C@@H]1Cc1c[nH]c2ccccc12

>  <residual activity / %>
82

$$$$
>  <MOLECULE>
CCNc1nc(Nc2cc(F)c(C(=O)N3CCOCC3)cc2OC)ncc1C(F)(F)F

>  <residual activity / %>
65

$$$$
>  <MOLECULE>
O=S(=O)(c1ccc(F)c2nonc12)N1CCN(c2ncc(C(F)(F)F)cc2Cl)CC1

>  <residual activity / %>
69

$$$$

* * *

- ASSAY SYSTEM: JAK2 JH1 JH2 (human) (UniProt O60674)
- Sequence (O60674 whole entry, looked up): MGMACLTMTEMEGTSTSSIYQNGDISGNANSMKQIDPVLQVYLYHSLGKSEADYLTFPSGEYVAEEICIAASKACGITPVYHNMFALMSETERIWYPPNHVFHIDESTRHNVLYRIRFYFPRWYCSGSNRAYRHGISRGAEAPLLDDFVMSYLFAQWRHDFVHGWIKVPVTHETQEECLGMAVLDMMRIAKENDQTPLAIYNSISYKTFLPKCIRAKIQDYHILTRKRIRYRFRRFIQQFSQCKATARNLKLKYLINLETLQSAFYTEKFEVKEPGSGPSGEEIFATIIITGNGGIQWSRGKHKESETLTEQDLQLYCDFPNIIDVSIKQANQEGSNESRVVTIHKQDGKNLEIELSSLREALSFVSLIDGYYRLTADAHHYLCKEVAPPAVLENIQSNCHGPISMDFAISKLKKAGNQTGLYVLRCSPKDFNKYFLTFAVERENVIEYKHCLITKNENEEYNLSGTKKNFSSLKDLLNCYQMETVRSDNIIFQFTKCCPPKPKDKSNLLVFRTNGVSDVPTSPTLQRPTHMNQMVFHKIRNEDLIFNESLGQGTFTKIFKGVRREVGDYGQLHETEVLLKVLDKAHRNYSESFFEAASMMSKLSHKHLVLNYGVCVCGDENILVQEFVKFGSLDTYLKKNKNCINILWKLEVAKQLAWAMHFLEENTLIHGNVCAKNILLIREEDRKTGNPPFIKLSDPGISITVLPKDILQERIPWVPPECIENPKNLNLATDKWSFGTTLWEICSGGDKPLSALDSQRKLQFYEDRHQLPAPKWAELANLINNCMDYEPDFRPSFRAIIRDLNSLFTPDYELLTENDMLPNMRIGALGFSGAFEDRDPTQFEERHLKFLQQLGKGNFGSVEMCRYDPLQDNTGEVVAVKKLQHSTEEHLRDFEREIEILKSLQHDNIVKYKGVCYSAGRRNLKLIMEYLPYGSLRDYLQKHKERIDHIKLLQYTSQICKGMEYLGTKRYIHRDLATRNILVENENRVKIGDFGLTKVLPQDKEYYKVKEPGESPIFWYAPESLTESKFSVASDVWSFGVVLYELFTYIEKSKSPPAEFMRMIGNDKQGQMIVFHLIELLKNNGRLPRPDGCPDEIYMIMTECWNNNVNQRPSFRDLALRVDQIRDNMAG
- MEASUREMENT PROTOCOL: radiometric filter-binding kinase assay
- MEASUREMENT CONDITIONS: compound 10.0 µM
Form field: residual activity (one value per entry).
READOUT: residual activity (%)

>  <MOLECULE>
Cc1ccc(=O)n(-c2ccccc2)c1

>  <ASSAY SYSTEM>
JAK2 JH1 JH2 (human) (UniProt O60674)

>  <UNIT TAG>
%

>  <RECORDED NUMBER>
90

$$$$
>  <MOLECULE>
NC(=O)c1cc(-c2ccnc(NC3CCCCC3)c2)nc(N2CCNCC2)c1

>  <ASSAY SYSTEM>
JAK2 JH1 JH2 (human) (UniProt O60674)

>  <UNIT TAG>
%

>  <RECORDED NUMBER>
89

$$$$
>  <MOLECULE>
Cc1ccc(-c2ccc3c(ccc4sc5c(c43)NC[C@@H](C)NC5=O)n2)cn1

>  <ASSAY SYSTEM>
JAK2 JH1 JH2 (human) (UniProt O60674)

>  <UNIT TAG>
%

>  <RECORDED NUMBER>
79

$$$$
>  <MOLECULE>
CC(C)(C#N)c1ccc(N2C(=O)OCc3cnc4ccc(-c5cnc6ccccc6c5)cc4c32)cc1

>  <ASSAY SYSTEM>
JAK2 JH1 JH2 (human) (UniProt O60674)

>  <UNIT TAG>
%

>  <RECORDED NUMBER>
31

$$$$
>  <MOLECULE>
CC(C)C[C@H](NC(=O)CNC(=O)c1cc(Cl)ccc1Cl)B1OC(=O)CC(CC(=O)O)(C(=O)O)O1 (stereo not given in full)

>  <ASSAY SYSTEM>
JAK2 JH1 JH2 (human) (UniProt O60674)

>  <UNIT TAG>
%

>  <RECORDED NUMBER>
104

$$$$
>  <MOLECULE>
NC1(c2ccc(-c3nc4ccn5c(=O)[nH]nc5c4cc3-c3ccccc3)cc2)CCC1

>  <ASSAY SYSTEM>
JAK2 JH1 JH2 (human) (UniProt O60674)

>  <UNIT TAG>
%

>  <RECORDED NUMBER>
94

$$$$
>  <MOLECULE>
FC(F)(F)c1ccc(-c2ccc(Oc3cncc4sc(-c5nn[nH]n5)cc34)cc2)cc1

>  <ASSAY SYSTEM>
JAK2 JH1 JH2 (human) (UniProt O60674)

>  <UNIT TAG>
%

>  <RECORDED NUMBER>
46

$$$$
>  <MOLECULE>
COc1cc(C(=O)N2CCOCC2)c(F)cc1Nc1ncc(C(F)(F)F)c(NC2CC2)n1

>  <ASSAY SYSTEM>
JAK2 JH1 JH2 (human) (UniProt O60674)

>  <UNIT TAG>
%

>  <RECORDED NUMBER>
52

$$$$
>  <MOLECULE>
O=S(=O)(c1ccc(F)c2nonc12)N1CCN(c2ncc(C(F)(F)F)cc2Cl)CC1

>  <ASSAY SYSTEM>
JAK2 JH1 JH2 (human) (UniProt O60674)

>  <UNIT TAG>
%

>  <RECORDED NUMBER>
97

$$$$
>  <MOLECULE>
NC(=O)c1c(NC(=O)C2CC2)sc2c1CCCC2

>  <ASSAY SYSTEM>
JAK2 JH1 JH2 (human) (UniProt O60674)

>  <UNIT TAG>
%

>  <RECORDED NUMBER>
60

$$$$
